Molecular target: HLA-B*58:01
Assay: IEDB peptide-MHC binding, purified MHC/direct/fluorescence; filed as Kd, often an IC50 or EC50 that approximates it; bounds were set here for any values at or beyond the usual limits of such assays
Conditions: source organism: Yersinia pestis
measure: Kd

Sample LTDEDKQNQ — what was its Kd? ≥ 20 µM

----------
Target: HLA-B*48:01
Assay: IEDB peptide-MHC binding, purified MHC/direct/fluorescence; filed as Kd, often an IC50 or EC50 that approximates it; bounds were set here for any values at or beyond the usual limits of such assays
Details: source organism: Lyssavirus rabies
measure: Kd (nM)
Give just the number in nM; leave the unit off.

Query (sequence): RQMKSGGRF ; field requested: Kd 1620
